# IC50 per entry
biological target: KRAS G12S (Homo sapiens, UniProt P01116+P62937, G12S); experiment: Disruption of BRAF RBD interaction with Ras (FRET / MOA assay, with Cyclophilin A); assay type: biochemical; conditions: read-out: KRAS G12S FRET data, IC50
Sequence (P01116 1-169 isoform P01116-2 G12S limits assumed, one chain of several): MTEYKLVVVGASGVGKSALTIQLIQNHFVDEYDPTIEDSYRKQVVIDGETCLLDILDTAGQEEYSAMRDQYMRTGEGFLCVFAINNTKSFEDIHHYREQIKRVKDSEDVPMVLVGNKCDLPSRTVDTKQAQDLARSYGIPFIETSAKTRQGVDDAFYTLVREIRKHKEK

compound | assaySystem | valueObserved
CCn1c(-c2cccnc2[C@H](C)OC)c2c3cc(ccc31)-c1csc(n1)C[C@H](NC(=O)[C@H](C(C)C)N(C)C(=O)N1C[C@H]3OCCN(C)[C@H]3C1)C(=O)N1CCC[C@H](N1)C(=O)OCC(C)(C)C2 (atropisomer, axis not shown) | KRAS G12S (Homo sapiens, UniProt P01116+P62937, G12S) | 100 to 1000 nM
CCn1c(-c2cccnc2[C@H](C)OC)c2c3cc(ccc31)-c1cc(O)cc(c1)C[C@H](NC(=O)[C@H](C(C)C)N(C)C(=O)[C@H]1C[C@H]1C)C(=O)N1CCC[C@H](N1)C(=O)OCC(C)(C)C2 | KRAS G12S (Homo sapiens, UniProt P01116+P62937, G12S) | 100 to 1000 nM
CCn1c(-c2cccnc2[C@H](C)OC)c2c3cc(ccc31)-c1cc(O)cc(c1)C[C@H](NC(=O)[C@H](C(C)C)N(C)C(=O)c1nc(NC(=O)/C=C/CN(C)C)cs1)C(=O)N1CCC[C@H](N1)C(=O)OCC(C)(C)C2 | KRAS G12S (Homo sapiens, UniProt P01116+P62937, G12S) | 1000 to 10000 nM

We next turn to a different compound, shown below.
Task: Requested field: IC50. Item: CCn1c(-c2cccnc2[C@H](C)OC)c2c3cc(ccc31)-c1cc(O)cc(c1)C[C@H](NC(=O)[C@H](C(C)C)N(C)C(=O)C1CCc3ccccc3N1)C(=O)N1CCC[C@H](N1)C(=O)OCC(C)(C)C2 (stereo partly shown)
Output: 100 to 1000 nM

---

IC50 overview
biological target: KRAS Q61H (Homo sapiens, UniProt P01116+P62937, Q61H); experiment: Ras-Raf disruption / FRET / MOA assay (BRAF RBD); type: biochemical; conditions: KRAS Q61H; read-out: KRAS Q61H FRET data IC50
Sequence (P01116 1-169 isoform P01116-2 Q61H limits assumed): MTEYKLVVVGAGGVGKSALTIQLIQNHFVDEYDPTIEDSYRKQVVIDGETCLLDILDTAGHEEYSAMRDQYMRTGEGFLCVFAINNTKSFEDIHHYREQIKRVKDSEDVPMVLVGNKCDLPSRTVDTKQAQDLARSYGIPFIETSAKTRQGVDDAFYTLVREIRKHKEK
Sequence (P62937 whole entry): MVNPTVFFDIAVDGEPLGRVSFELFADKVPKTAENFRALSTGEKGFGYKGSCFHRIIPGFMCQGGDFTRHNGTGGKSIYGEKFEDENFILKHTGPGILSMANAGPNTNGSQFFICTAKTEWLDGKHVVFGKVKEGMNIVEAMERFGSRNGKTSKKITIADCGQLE

Example entries begin here.
molecule | measuredParameter | valueObserved
CCn1c(-c2cccnc2[C@H](C)OC)c2c3cc(ccc31)-c1csc(n1)C[C@H](NC(=O)[C@H](C(C)C)N(C)C(=O)N1CC(N(C)C(=O)[C@H]3CN3)C1)C(=O)N1CCC[C@H](N1)C(=O)OCC(C)(C)C2 | IC50 | 10 to 100 nM
CCn1c(-c2cccnc2[C@H](C)OC)c2c3cc(ccc31)-c1cc(O)cc(c1)C[C@H](NC(=O)[C@H](C(C)C)N(C)C(=O)[C@@H]1CCN(C(=O)[C@H]3CN3)[C@@H]1C)C(=O)N1CCC[C@H](N1)C(=O)OCC(C)(C)C2 (atropisomer, axis not shown) | IC50 | 10 to 100 nM
CCn1c(-c2cccnc2[C@H](C)OC)c2c3cc(ccc31)-c1cc(O)cc(c1)C[C@H](NC(=O)[C@H](C(C)C)N(C)C(=O)N1C[C@@H]3[C@H]1CCN3C(=O)[C@H]1CN1)C(=O)N1CCC[C@H](N1)C(=O)OCC(C)(C)C2 (atropisomer, axis not shown) | IC50 | 100 to 1000 nM

Okay, next one:
Task: Can you look up the measured IC50 of "CCn1c(-c2cccnc2[C@H](C)OC)c2c3cc(ccc31)-c1csc(n1)C[C@H](NC(=O)[C@H](C(C)C)N(C)C(=O)N1CCN(C(=O)[C@H]3CN3)C[C@H]1C)C(=O)N1CCC[C@H](N1)C(=O)OCC(C)(C)C2" for me?
Output: 10 to 100 nM
